TARGET UNDER TEST: human sEH enzyme (Homo sapiens)
Construct: His-tag (N, cleaved yes); made in house; host or cells: E. coli
Sequence (P34913 1-555): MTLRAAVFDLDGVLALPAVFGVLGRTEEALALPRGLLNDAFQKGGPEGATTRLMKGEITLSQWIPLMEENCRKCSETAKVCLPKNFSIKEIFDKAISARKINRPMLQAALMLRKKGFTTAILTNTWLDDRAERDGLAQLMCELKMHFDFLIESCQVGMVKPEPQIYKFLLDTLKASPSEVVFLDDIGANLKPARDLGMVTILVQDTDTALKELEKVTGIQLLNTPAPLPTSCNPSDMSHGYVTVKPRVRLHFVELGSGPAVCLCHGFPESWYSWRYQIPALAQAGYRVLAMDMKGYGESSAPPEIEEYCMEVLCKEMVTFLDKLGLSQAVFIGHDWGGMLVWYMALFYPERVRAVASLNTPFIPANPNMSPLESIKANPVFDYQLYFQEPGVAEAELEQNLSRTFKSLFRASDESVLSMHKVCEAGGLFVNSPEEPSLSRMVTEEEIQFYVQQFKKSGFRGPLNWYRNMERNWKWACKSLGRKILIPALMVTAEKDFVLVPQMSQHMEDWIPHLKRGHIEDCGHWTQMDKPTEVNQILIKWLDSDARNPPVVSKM
MEASUREMENT DESCRIPTION: sEH human enzyme assay (fluorescence based enzyme in vitro assay)
Type: biochemical
CONDITIONS: recombinant human sEH about 1 nM, fluorescence substrate S7 10 uM, pH7.0, 25° C.; read-out: IC50 [nM] for human sEH enzyme inhibition
PROPERTY NAME: IC50 (nM)
Express your answer in nM, writing the number without its unit.

Ask | Endpoint output: IC50 of O=C(O)CCC1(c2ccccc2)CCCN(C(=O)Nc2ccc(Cl)cc2)C1 (centres unmarked) . Value?
Reply | 5

Ask | Entry O=C(O)CCC1(c2ccc(-c3ccccc3)cc2)CCCN(C(=O)Nc2ccc(OC(F)(F)F)cc2)C1 (centres unmarked) : reported IC50 = ?
Reply | 8
